The measurements presented in this section are drawn from PubChem BioAssay (NCI).

System: NCI-H322M lung
Assay: NCI-60 one-dose screen, 48 h
Settings: 10 µM unless noted
The panel holds about 83,000 compounds, 20% with a hit somewhere; the sample as a whole holds those more often. Calls of active or inactive are those of the source. The calls were made as follows: active = growth percent below 10; inactive = the rest.
// one of True = active, False = inactive, no free text

Previously resolved entries follow.
C/C(=C(\c1ccc(OCCN2CCOCC2)cc1)c1ccc(OC(=O)Cc2ccccc2)cc1)c1ccc(Cl)cc1 :: False
CC1OC(=O)C(C(C)C)NC(=O)C(C(C)C)OC(=O)C(C(C)C)NC(=O)C(C)OC(=O)C(C(C)C)NC(=O)C(C(C)C)OC(=O)C(C(C)C)NC(=O)C(C)OC(=O)C(C(C)C)NC(=O)C(C(C)C)OC(=O)C(C(C)C)NC1=O (configuration not stated) :: True
O=S1(=O)OCCO1 :: False
O=[P+](O)c1cccnc1 :: False
COc1cc(/C=C\[N+](=O)[O-])ccc1OCc1ccccc1 :: False

Challenge: Hi team, can someone confirm the assay call for CCOC(=O)C1C(C=C(C)C)C1(C)C (configuration not stated) ?
Response given: False

Challenge: Hi team, can someone confirm the assay call for Cc1cc(C(C)(C)C)ccc1O ?
Response given: False
